molecular target: 3-hydroxy-3-methylglutaryl-coenzyme A reductase (Rattus norvegicus, UniProt P51639); assay: Inhibitory activity against partially purified rat liver HMG-CoA reductase in vitro; 0.0073-0.017
Sequence (P51639 whole entry): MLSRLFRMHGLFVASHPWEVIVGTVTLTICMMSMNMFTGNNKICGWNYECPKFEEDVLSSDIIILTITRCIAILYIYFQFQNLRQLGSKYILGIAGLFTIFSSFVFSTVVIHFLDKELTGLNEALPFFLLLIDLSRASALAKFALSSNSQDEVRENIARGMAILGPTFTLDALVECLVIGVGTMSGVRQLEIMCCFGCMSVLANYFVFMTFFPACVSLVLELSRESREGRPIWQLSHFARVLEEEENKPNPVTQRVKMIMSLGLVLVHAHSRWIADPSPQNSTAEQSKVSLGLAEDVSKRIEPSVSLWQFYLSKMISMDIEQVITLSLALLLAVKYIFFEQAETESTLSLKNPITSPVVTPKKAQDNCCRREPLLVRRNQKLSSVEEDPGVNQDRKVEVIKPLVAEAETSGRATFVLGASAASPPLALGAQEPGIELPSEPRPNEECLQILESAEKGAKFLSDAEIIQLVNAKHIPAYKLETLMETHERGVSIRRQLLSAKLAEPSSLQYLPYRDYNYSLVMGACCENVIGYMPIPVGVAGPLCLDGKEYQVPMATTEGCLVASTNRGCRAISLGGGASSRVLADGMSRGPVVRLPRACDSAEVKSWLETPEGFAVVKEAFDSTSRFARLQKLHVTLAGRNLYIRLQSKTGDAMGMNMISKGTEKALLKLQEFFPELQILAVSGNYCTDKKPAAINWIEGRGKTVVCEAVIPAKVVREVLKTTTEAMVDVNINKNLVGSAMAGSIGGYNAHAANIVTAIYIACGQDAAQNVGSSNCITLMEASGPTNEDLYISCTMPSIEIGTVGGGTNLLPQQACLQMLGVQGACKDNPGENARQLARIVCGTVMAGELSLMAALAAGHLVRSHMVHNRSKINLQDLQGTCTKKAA
propertyName: pIC50
Expect pIC50 as a plain number equal to -log10 of the molar concentration.

Query block: Reported pIC50, compound CC[C@H](C)C(=O)O[C@H]1C[C@@H](C)C=C2C=C[C@H](C)[C@H](CC[C@@H]3C[C@@H](O)CC(=O)O3)C21 (stereo partly specified) : ____
Result block: 8.04

====

system: HepG2; assay: Tested for ability to inhibit incorporation of [14C]acetate into cholesterol in cultured human hepatoma (HEP-G2) cells; 0.11-0.27; format: functional, cell-based
propertyName: IC50 (nM)
Expressed in nM, but write only the number.

Query block: Reported IC50, compound O=C(O)C[C@H](O)C[C@H](O)/C=C/c1c2c(nn1-c1ccc(F)cc1)C(Cc1ccccc1)CCC2 (stereo partly specified) : ____
Result block: 170
